This collection of values is drawn from paper PMC8620685.

Assay: MTT assay, normal bronchial epithelium cell line BEAS-2B
Type: cell-based
Conditions: human
ASSAY ENDPOINT: IC50 at 72 h (µM)
API: value field is a number in µM; no unit string.

[ask] Determine its reported IC50 at 72 h: O=C1OC(O)C(Br)=C1Br (stereo not shown) [MBA, 3,4-dibromo-5-hydroxyfuran-2(5H)-one, reference compound]
[reply] 39.7

* * *

Tested on: MCF-7
Assay: MTT assay, MCF-7
Format: cell-based, human
Conditions: human, 72 h
ASSAY ENDPOINT: pIC50
# pIC50 = -log10(concentration in molar units)

[ask] Provide pIC50 value for the following compound: CC[Si](CC)(CC)OC1OC(=O)C(Br)=C1Br (stereo not shown)
[reply] 4.05
